B1: ZNF263 (parent)
chain: CSECGESFSRSSRLMSHQRTHTG

# Variants of: B1
# PROTOCOL DESCRIPTION: protein stability index of a GFP-peptide fusion (GPS, HEK-293T) (PSI 1-6); higher = more stable;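 note: lentivirally expressed fusions sorted by FACS into six bins by GFP to DsRed ratio, PSI derived from sequencing read proportions per bin multiplied by bin number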
# RUN CONDITIONS: c terminus: native
# protein stability index annotations
Enter a number only.

GET /values?readout=protein stability index&item= `H17S`
1.51

GET /values?readout=protein stability index&item= `E3C`
1.8

GET /values?readout=protein stability index&item= `F8L`
1.37

GET /values?readout=protein stability index&item= `R19N`
4.11

GET /values?readout=protein stability index&item= `C1H`
2.11

GET /values?readout=protein stability index&item= `E3M`
2.26

GET /values?readout=protein stability index&item= `H17Y`
1.76

GET /values?readout=protein stability index&item= `R10L`
3.71

GET /values?readout=protein stability index&item= `G5I`
2.23

GET /values?readout=protein stability index&item= `H17P`
1.11

GET /values?readout=protein stability index&item= `Q18E`
2.76

GET /values?readout=protein stability index&item= `R19S`
3.46
